MEASUREMENT_DESCRIPTION: TOX21_p53_BLA_p5_viability: Viability Assessment in the Tox21 HCT-116 p53 Agonism Beta-lactamase Assay, Phase 5 (AID 2283600)
Inconclusive results are not listed. Activity calls are given as the source filed them. How the source made its calls: active means hit-call score of the fitted dose curve at least 0.9, where 1 is the maximum; inconclusive means response in the unintended direction; inactive means score below 0.9.
Outcomes: active, inactive

INSERT INTO results (test_smiles, answer_label) VALUES
  ('Nc1ccn(C[C@@H](CO)OCP(=O)(O)O)c(=O)n1', 'inactive'),
  ('CCc1cc(C(N)=S)ccn1', 'inactive'),
  ('CCCCN(CCCC)c1ccc(C(=O)c2ccccc2C(=O)O)c(O)c1', 'active'),
  ('C[C@]12CCC(=O)C[C@@H]1CC[C@@H]1[C@@H]2CC[C@]2(C)C=CC[C@@H]12', 'inactive'),
  ('CC(=O)Oc1ccc(C(c2ccc(OC(C)=O)cc2)c2ccccn2)cc1', 'inactive'),
  ('CN1[C@@H](CC(=O)c2ccccc2)CCC[C@H]1C[C@H](O)c1ccccc1', 'inactive'),
  ('CN(C)N=Nc1ccccc1', 'inactive'),
  ('O=C(c1ccc(F)cc1)C1CCN(CCn2c(=O)[nH]c3ccccc3c2=O)CC1', 'inactive'),
  ('NNc1nncc2ccccc12', 'inactive'),
  ('c1ccc(-n2cnnn2)cc1', 'inactive'),
  ('Nc1nc2c(ncn2CCC(CO)CO)c(=O)[nH]1', 'inactive'),
  ('c1ccc2c(CC3=NCCN3)cccc2c1', 'inactive');
